Tested on: ACHN renal
Test: NCI-60 one-dose screen, 48 h (100 = growth as untreated, 0 = no growth, -100 = all killed)
Conditions: 10 µM unless noted
About 83,000 compounds went through this panel and 20% of them were active in at least one assay; those are over-represented in the sample as a whole. Activity calls are given as the source filed them. How the source made its calls: active means growth percent below 10; inactive means the rest.
READOUT_TYPE: growth

Known growth results, listed for orientation:
Name the recorded growth for O=c1[nH]c2ccccc2cc1-c1nc2ccc(Cl)cc2[nH]1 .
27% (inactive)

Name the recorded growth for Cc1ccn2c3c(c(C(=O)O)c2c1)C(=O)c1ccccc1C3=O .
86.2% (inactive)

Continuing:
Name the recorded growth for COc1cc(-c2csc(NC(=O)Nc3ccc(Cl)cc3)n2)cc(OC)c1OC .
18.3% (inactive)

Name the recorded growth for C=C1C(=O)O[C@H]2[C@H]1CC/C(COC(=O)NCc1nc3ccccc3[nH]1)=C\CC[C@@]1(C)O[C@@H]21 .
91.4% (inactive)

Name the recorded growth for CN1CCN(/C=C2\CC(C(=O)NCc3ccc(Cl)cc3Cl)NC2=O)CC1 (stereo not given) .
110% (inactive)

---

System: CCRF-CEM leukemia
Experiment: NCI-60 one-dose screen, 48 h (100 = growth as untreated, 0 = no growth, -100 = all killed)
Settings: 10 µM unless noted
About 83,000 compounds went through this panel and 20% of them were active in at least one assay; those are over-represented in the sample as a whole.
Classify on growth using range 1 (below 10%), range 2 (10% to below 80%), range 3 (80% or more)

For orientation, consider the following solved cases.
Category lookup for the compound COc1ccc(NC(=O)Nc2ccc(Nc3nc(C)cc(Nc4ccc(C)cc4)n3)cc2)cc1
range 1

Category lookup for the compound COc1ccc(C(=S)c2cc(OC)c(OC)c(OC)c2)cc1OC(=O)CCl
range 2

Category lookup for the compound Cc1nn(-c2ccc(-c3ccc(OC(F)(F)F)cc3)cc2)c2nc(-c3ccccc3)nc(N)c12
range 3

Continuing:
Category lookup for the compound COc1ccc2cc(/C=C3\N=C(c4cc(OC)c(OC)c(OC)c4)OC3=O)c(OC)nc2c1
range 3

Category lookup for the compound C=C(C)[C@@H]1CC[C@]2(C(=O)n3ccnc3)CC[C@]3(C)[C@H](CC[C@@H]4[C@@]5(C)CCCNC(C)(C)[C@@H]5CC[C@]43C)[C@@H]12
range 1

Category lookup for the compound COc1cc(-c2nn(-c3ccc(Br)cc3)cc2CO)ccc1O
range 2

Category lookup for the compound C=C1C(=O)O[C@H]2[C@H]1CC/C(COC(=O)c1cc3ccccc3o1)=C\CC[C@@]1(C)O[C@@H]21
range 1

Category lookup for the compound O=C(NCc1ccccc1)c1ccc2c(c1)NC(=O)[C@@H]1CCCN21
range 3

Category lookup for the compound N#Cc1nc(-c2ccccc2)oc1S(=O)(=O)NCC(c1ccc(Cl)cc1)N1CCCCC1 (stereo not given)
range 1

Category lookup for the compound Cc1cc(C)cc(Nc2nccc(-c3c(-c4ccc(F)cc4)ncn3C3CCNCC3)n2)c1
range 1

Category lookup for the compound COc1ccc2c(c1)Oc1nc(N)c(C#N)c(N)c1C2Sc1ccc(O)cc1 (stereo not given)
range 2

Category lookup for the compound O=C(Nc1ccc2ncnc(Nc3ccc(F)c(Cl)c3)c2c1)c1ccccc1
range 3

Category lookup for the compound CCCCn1c(=O)c(/C=C/C(=O)/C=C/c2ccc(OC)cc2)cc2cc(Cl)ccc21
range 2

Category lookup for the compound COc1cc(/C=C/C(=O)c2cccs2)ccc1OCc1ccc(Cl)nc1
range 2

Category lookup for the compound N#Cc1c(NC(=O)c2cccs2)[n+]([O-])c2cc(C(F)(F)F)ccc2[n+]1[O-]
range 3

Category lookup for the compound CCOC(=O)C1CCN(S(=O)(=O)/N=C2/NC(=O)NC2=C(Cl)Cl)CC1
range 1

---

growth: recorded values
System: TK-10 renal
Assay: NCI-60 one-dose screen, 48 h (100 = growth as untreated, 0 = no growth, -100 = all killed)
Details: 10 µM unless noted
This is part of a sample that, as a whole, favours compounds with a hit. Of some 83,000 tested, about 20% had one in any assay. The source made the active and inactive calls. How the source made its calls: active means growth percent below 10; inactive means the rest.

Known growth results, listed for orientation:
Name the recorded growth for O=c1c2ccccc2oc2ccc(OCCCCCCN3CCCCCC3)cc12 .
66.3% (inactive)

Name the recorded growth for N#Cc1ccc(N2Cc3cc(Cl)ccc3OC3=C2C(=O)N(Cc2ccc(F)cc2)C3=O)cc1 .
-79.4% (active)

Name the recorded growth for COc1ccc2c(c1)Oc1nc(N)c(C#N)c(N)c1C2Sc1ccc(SC)cc1 (stereo not given) .
-16.4% (active)

Name the recorded growth for CCCCn1c(=O)c(/C=C/C(=O)/C=C/c2ccc(OC)cc2)cc2cc(Cl)ccc21 .
112% (inactive)

Field: next compound
Name the recorded growth for CC1CCCN(CCCCCOc2ccc3oc4ccc(Cl)cc4c(=O)c3c2)C1 (stereo not given) .
92% (inactive)

---

Tested on: NCI/ADR-RES ovarian
Experiment: NCI-60 one-dose screen, 48 h (100 = growth as untreated, 0 = no growth, -100 = all killed)
Conditions: 10 µM unless noted
Experimental: Growth inhibition of the NCI/ADR-RES human […] tumor cell line is measured as a screen for anti-cancer activity. Cells are grown in 96 well plates and exposed to the test compound for 48 hours. Compounds are tested at a single concentration, which is 10^-5 M for most compounds. The reported endpoint is percent growth (GI% or GIPRCNT), where numbers from 0 - 100% represent growth inhibition, and numbers from -100% - 0 represent cell death. For example, a value of 40 represents 60% growth inhibition. […]
About 83,000 compounds went through this panel and 20% of them were active in at least one assay; those are over-represented in the sample as a whole.
Everything with growth lower than 80% is no; everything else, including exactly 80%, is yes.

For orientation, consider the following solved cases.
Hi, just wondering whether COc1ccc(-c2cc(-c3nnc(SCC(=O)Nc4ccc(/C(C)=N\O)cc4)o3)c3ccccc3n2)cc1 shows growth of 80% or higher.
yes

Hi, just wondering whether Cc1nc2sc(C(=O)Nc3cccc4ccccc34)c(N)c2cc1C(C)O (centres undefined) shows growth of 80% or higher.
no

Hi, just wondering whether CN(C)CCCn1c2c(c3cc(-c4cccc(S(N)(=O)=O)c4)ccc3c1=O)C(=O)c1ccccc1-2 shows growth of 80% or higher.
no

Hi, just wondering whether CCOCCc1c(O)nc(SC)[nH]c1=O shows growth of 80% or higher.
yes

Hi, just wondering whether COc1ccc(NC(=O)c2ccc(Nc3ncnc4[nH]c(C)c(C)c34)cc2)cc1 shows growth of 80% or higher.
yes

Continuing:
Hi, just wondering whether O=C1CC23OC(C(O)c4ccccc4N12)C1C(c2ccccc2)=NOC13 (centres undefined) shows growth of 80% or higher.
no

Hi, just wondering whether C=C1C(=O)O[C@H]2[C@H]1CC/C(COC(=O)Nc1nc3ccccc3[nH]1)=C\CC[C@@]1(C)O[C@@H]21 shows growth of 80% or higher.
yes

Hi, just wondering whether COc1ccccc1C(=O)/C=C/c1cc2cccc(OC)c2[nH]c1=O shows growth of 80% or higher.
no

Hi, just wondering whether COC(=O)c1oc2c(C(=O)/C=C/c3ccc(OC)cc3)c(OCCCN3CCCCC3)ccc2c1C shows growth of 80% or higher.
no

Hi, just wondering whether CCOC(=O)c1c(C)nc2c(c1N)/C(=C/c1cccs1)C(=O)N2c1ccc(OC)cc1 shows growth of 80% or higher.
no

Hi, just wondering whether Cc1ccc(C(=O)/C(=C/c2ccc([N+](=O)[O-])cc2)S(=O)Cc2ccccc2)cc1 (centres undefined) shows growth of 80% or higher.
no

Hi, just wondering whether N#Cc1ccc(N2Cc3cc(Cl)ccc3OC3=C2C(=O)N(Cc2ccc(F)cc2)C3=O)cc1 shows growth of 80% or higher.
no

Hi, just wondering whether NC(=O)c1ccc2nc3c(n2c1)C(=O)C(=O)c1ccccc1-3 shows growth of 80% or higher.
no

Hi, just wondering whether Nc1cccc(C(=O)Nc2ccc3c(O)c(N=Nc4ccc(N=Nc5ccc(S(=O)(=O)O)cc5)cc4)c(S(=O)(=O)O)cc3c2)c1 shows growth of 80% or higher.
yes

Hi, just wondering whether COC1=CC=CC2(OC)C3(O)CCCc4cccc(c43)N3C(=O)COC132 (centres undefined) shows growth of 80% or higher.
yes

Hi, just wondering whether O=C1NN(c2ccccc2)C(c2ccc3c(c2)OCO3)N2CCC[C@@H]12 (some centres undefined) shows growth of 80% or higher.
yes

---

Tested on: MDA-MB-435 melanoma
Experiment: NCI-60 one-dose screen, 48 h
Conditions: 10 µM unless noted
Procedure: Growth inhibition of the MDA-MB-435 human Melanoma tumor cell line is measured as a screen for anti-cancer activity. Cells are grown in 96 well plates and exposed to the test compound for 48 hours. Compounds are tested at a single concentration, which is 10^-5 M for most compounds. The reported endpoint is percent growth (GI% or GIPRCNT), where numbers from 0 - 100% represent growth inhibition, and numbers from -100% - 0 represent cell death. […]
About 83,000 compounds went through this panel and 20% of them were active in at least one assay; those are over-represented in the sample as a whole. The source made the active and inactive calls. How the source made its calls: active means growth percent below 10; inactive means the rest.
Please reply with one of these outcomes: label 1 (active), label 0 (inactive)

Call for entry CCCn1c(N)c(C(N)=O)sc1=S :
label 0

Call for entry COc1ccc(C2N(c3cc(OC)c(OC)c(OC)c3)C(=O)C2(F)F)cc1F (stereo not given) :
label 0

Call for entry COc1ccc(Nc2cc(NC(=O)CNc3cc(OC)c(Cl)c(OC)c3Cl)ncn2)cc1 :
label 0

Call for entry O=C(CSC(=S)N1CCCCC1)Nc1ccccc1 :
label 0

Call for entry COc1ccc2nc3c(n2c1)C(=O)C(=O)c1ccccc1-3 :
label 1

Call for entry O=c1cc(/C=N\Nc2nc(-c3ccc(Cl)cc3Cl)cs2)c2cc(Cl)ccc2o1 :
label 0

Call for entry Cn1nc(C(F)(F)F)c(-c2cc(C(F)(F)F)cc(C(F)(F)F)c2)c1-c1ccc(OCc2ccc(Cl)cc2)cc1O :
label 0

Call for entry CN1CCN(/C=C2\CC(C(=O)NCc3ccc(Cl)cc3Cl)NC2=O)CC1 (stereo not given) :
label 0

Call for entry COc1cc(C(C)c2ccc3c(ccn3C)c2)cc(OC)c1OC (stereo not given) :
label 1

# next compound below
Call for entry COc1cc(-c2csc(NC(=O)Nc3cc(Cl)cc(Cl)c3)n2)cc(OC)c1OC :
label 0
